target.or.system: PDZRN4_1, Q6ZMN7
Sequence (Q6ZMN7 213-318): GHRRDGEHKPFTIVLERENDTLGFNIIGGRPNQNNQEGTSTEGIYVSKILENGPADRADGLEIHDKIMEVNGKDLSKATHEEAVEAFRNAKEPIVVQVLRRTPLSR
experiment.description: holdup assay
Parameters: key: below the threshold = too weak to quantify, mostly under pKd 3.1 to 4
assay.context: plain residues with an end cap or a label only (N-terminal biotin on a linker: ado-ado)
metric: pKd

> print(dat)
                           binder      recorded.result
 1  KSRPENGTVC [TMEM178B, H3BS89]  below the threshold
 2     LLQEEWETVM [PTH1R, Q03431]                  4.2
 3    DYSNLRETDI [ADRA1D, P25100]  below the threshold
 4     LVEEEEPMNL [HDAC7, Q8WUI4]  below the threshold
 5    NSTHNLKDYV [CLDN20, P56880]  below the threshold
 6   KKTPVSRSHL [SLC22A3, O75751]                 3.66
 7      SQDPKKPSRV [CBY2, Q8NA61]  below the threshold
 8     PEKVSNTTVV [IGSF5, Q9NSI5]  below the threshold
 9     PDSYHRRDFW [U2AF2, P26368]                 3.89
10     GQNMTVSVVI [PRLHR, P49683]  below the threshold
11     SSSVNVSSNL [CXCR1, P25024]  below the threshold
12    PAALPESTHM [SLC9A3, P48764]  below the threshold
13    HYPASPDSWV [CTNND2, Q9UQB3]                 4.14
